Target: T1, Aβ1–42 fibrils (UniProt P05067 672-713)
T1 construct: amyloid-β peptide Aβ1–42, cut from the amyloid precursor protein (APP), in fibrillar form; Aggregated (fibrillar) state of the same peptide as m15; also called fibrillar Aß1–42; Aβ fibrils; source: bought: JPT Biotech or Bachem AG (HPLC purified peptide); fibrils formed at 37°C (7 days in PBS pH 7.4 for SPR; five days in 50 mM Tris-HCl pH 7.4 for ELISA)
T1 sequence (P05067 672-713): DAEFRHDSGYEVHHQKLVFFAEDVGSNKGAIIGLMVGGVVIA
Assay: SPR; Biacore T100, single-cycle mode, 25°C; Aβ1–42 fibrils immobilised on a CM5 chip by amine coupling; PBS pH 7.4, 30 µl/min; 100 to 62500 nM in fivefold steps, 60 s each; heterogeneous ligand model
Details: both partners purified
Square brackets hold non-standard residues; d marks the D form. Primed or numbered codes have the meaning given here. Ends that are not written are not given here. FITC′ = fluorescein isothiocyanate (ϕ)
Assignment: determine reported K D1 (heterogeneous ligand model, site 1) for the given binders.
Kindly provide the number alone.

Query K D1 (heterogeneous ligand model, site 1) for [dQ][dS][dH][dY][dR][dH][dI][dS][dP][dA][dQ][dK][dK](FITC′) (D-enantiomeric derivative of ACI-80 (D1): V12K, added C-terminal lysine; also called D1-V12K-Kϕ; source: synthetic peptide (JPT Peptide Technologies GmbH, Berlin)) [ACI-87-Kϕ]
8.93e-06

Query K D1 (heterogeneous ligand model, site 1) for [dQ][dS][dH][dY][dR][dH][dI][dS][dP][dA][dQ][dV][dK](FITC′) (D-enantiomeric peptide ACI-80 (D1), selected by mirror image phage display on aggregated Aβ1–42, with an added C-terminal lysine; also called D1-Kϕ; source: synthetic peptide (JPT Peptide Technologies GmbH, Berlin)) [ACI-80-Kϕ]
5.38e-05

Query K D1 (heterogeneous ligand model, site 1) for [dP][dS][dH][dY][dR][dH][dI][dS][dP][dA][dQ][dK][dK](FITC′) (D-enantiomeric derivative of ACI-80 (D1): Q1P, V12K, added C-terminal lysine; also called D1-Q1P-V12K-Kϕ; source: synthetic peptide (JPT Peptide Technologies GmbH, Berlin)) [ACI-89-Kϕ]
8e-06

Query K D1 (heterogeneous ligand model, site 1) for [dS][dH][dY][dR][dH][dI][dS][dP][dA][dQ][dK][dK](FITC′) (D-enantiomeric derivative of ACI-80 (D1): N-terminal glutamine deleted (Q1X), V12K, added C-terminal lysine; also called D1-Q1X-V12K-Kϕ; source: synthetic peptide (JPT Peptide Technologies GmbH, Berlin)) [ACI-88-Kϕ]
4.22e-07
